protocol: Stability in human hepatocytes
Type: in vitro ADME
applied conditions: Diastereoisomer A (upfield shift in 31P NMR), 5 μM, 1 million cells/ml, 37° C., human hepatocytes, read-out: t1/2, Human Hepatocytes, Diastereoisomer A (converted)
parameter measured: half-life (h)
Give the quantity in h, number only.

The following molecules have reported results that may help.
Exam item: Which half-life value belongs to COC(=O)CCNC(=O)[C@@H]1OP(=O)(NCC(=O)OCc2ccccc2)OCC1(C)C (some centres unmarked) ?
Marked response: 0.43

Exam item: Repeat with COC(=O)CCNC(=O)[C@@H]1OP(=O)(N[C@@H](C)C(=O)OC)OCC1(C)C (some centres unmarked)
Marked response: 2.65

Continuing:
Exam item: Entry under review: COC(=O)CCNC(=O)[C@@H]1OP(=O)(N[C@H]2CN[C@@H](C(=O)OC)C2)OCC1(C)C (some centres unmarked) . Reported half-life?
Marked response: 2.39

---

molecules and their reported half-life
protocol: physchem
applied conditions: buffer, pH 7.5, t1/2 (h) Diastereoisomer B, phosphate buffered saline, 10 mM phosphate buffer pH 7.5, 37° C.; Diastereoisomer B

# count of solved cases: 2
Exam item: Any idea what its half-life is? The molecule is COC(=O)CCNC(=O)[C@@H]1OP(=O)(NCC2CCCO2)OCC1(C)C (stereo partly drawn)
Marked response: > 40 h

Exam item: Next molecule: COC(=O)CCNC(=O)[C@@H]1OP(N)(=O)OCC1(C)C (stereo partly drawn)
Marked response: > 40 h

Continuing:
Exam item: Could you share which half-life value was measured for COC(=O)CCNC(=O)[C@@H]1OP(=O)(N[C@H](C)C(=O)OC)OCC1(C)C (stereo partly drawn) ?
Marked response: > 80 h

---

protocol: Stability in mouse hepatocytes
Format: in vitro ADME
applied conditions: t1/2, Mouse Hepatocytes, Diastereoisomer A
parameter measured: half-life at 5 µM (min)
Enter your answer as a number in min; do not include the unit.

Below, each entry is followed by its recorded half-life at 5 µM result.
Exam item: Reported half-life at 5 µM, compound COC(=O)CCNC(=O)[C@@H]1OP(=O)(N[C@@H](C)C(=O)OC[C@H]2CCC(=O)N2)OCC1(C)C (stereo partly drawn) : ____
Marked response: 70.8

Exam item: Now this one: COC(=O)CCNC(=O)[C@@H]1OP(=O)(N[C@@H](C)C(=O)OCCc2ccccc2)OCC1(C)C (stereo partly drawn)
Marked response: 23.4

Exam item: One more compound: `CC(C)(C)C(=O)OCO[P@@]1(=O)OCC(C)(C)[C@H](C(=O)NCCC(=O)O)O1`
Marked response: 18

Exam item: COC(=O)CCNC(=O)[C@H](O)C(C)(C)COP1(=O)OCC(C)(C)[C@H](C(=O)NCCC(=O)OC)O1 (stereo partly drawn) ?
Marked response: 20.4

Exam item: Again, but for COC(=O)CCNC(=O)[C@@H]1OP(=O)(N[C@@H](Cc2cccnc2)C(=O)OC)OCC1(C)C (stereo partly drawn)
Marked response: 36

***
Exam item: Please look up its half-life at 5 µM: COC(=O)CCNC(=O)[C@@H]1OP(=O)(N[C@H](C(=O)OCc2ccccc2)C(C)C)OCC1(C)C (stereo partly drawn)
Marked response: 28.2

---

protocol: Stability in human plasma
Format: in vitro ADME
applied conditions: human, plasma, Diastereoisomer B, 37° C., read-out: t1/2, Human Plasma, Diastereoisomer B (converted)
parameter measured: half-life at 3 µM

Exam item: # half-life at 3 µM lookup, item C[C@H](NP1(=O)OCC(C)(C)[C@H](C(=O)NCCC(=O)OC2Cc3ccccc3C2)O1)C(=O)OCCc1ccccc1 (stereo partly drawn) [1-54]
Marked response: < 9.6 min

Exam item: Entry to check: CCc1cc(C(=O)OCOP2(=O)OCC(C)(C)[C@H](C(=O)NCCC(=O)OC)O2)n(C)n1 (stereo partly drawn) [Compound No. 84]
Marked response: 57.6 min

Exam item: Another compound to look at: CC(C)(C)OC(=O)CCNC(=O)[C@@H]1OP(=O)(OCOC(=O)C(C)(C)C)OCC1(C)C (stereo partly drawn) [Compound No. 75]
Marked response: < 9.6 min

Exam item: Please give the result for COC(=O)CCNC(=O)[C@@H]1OP(=O)(OCOC(=O)c2ccccc2)OCC1(C)C (stereo partly drawn) [Compound No. 64] too.
Marked response: < 9.6 min

Exam item: Ok, now CC(C)(C)C(=O)OCO[P@@]1(=O)OCC(C)(C)[C@H](C(=O)NCCC(=O)OCc2cncs2)O1 (single isomer, unassigned) [Compound No. 79]
Marked response: < 9.6 min

Exam item: What do you have for C[C@H](NP1(=O)OCC(C)(C)[C@H](C(=O)NCCC(=O)OCc2ccncc2)O1)C(=O)OCCc1ccccc1 (stereo partly drawn) [compound 38] ?
Marked response: > 60 min

***
Exam item: Could you share which half-life at 3 µM value was measured for COC(=O)CCNC(=O)[C@@H]1OP(=O)(OCOC(=O)OC(C)C)OCC1(C)C (stereo partly drawn) [Compound No. 69] ?
Marked response: < 9.6 min

Exam item: One more compound: COC(=O)CCNC(=O)[C@@H]1OP(=O)(OCOC(=O)c2cncs2)OCC1(C)C (stereo partly drawn) [Compound No. 70]
Marked response: < 9.6 min

Exam item: Please do the same for CCC(CC)C(=O)OCOP1(=O)OCC(C)(C)[C@H](C(=O)NCCC(=O)OC)O1 (stereo partly drawn) [Compound No. 67] as well.
Marked response: < 9.6 min

Exam item: // next record CC(C)(C)C(=O)OCOP1(=O)OCC(C)(C)[C@H](C(=O)NCCC(=O)OCc2ncccn2)O1 (stereo partly drawn) [Compound No. 95]
Marked response: < 9.6 min

Exam item: Next entry: COC(=O)CCNC(=O)[C@@H]1OP(=O)(N[C@H](C)C(=O)OCCc2scnc2C)OCC1(C)C (stereo partly drawn) [compound 32]
Marked response: > 60 min

Exam item: And what about the compound COC(=O)CCNC(=O)[C@@H]1O[P@@](=O)(N[C@@H](C)C(=O)OCCc2ccccn2)OCC1(C)C [compound 35] ?
Marked response: 53.4 min
